Catalogue of pIC50 values
- test-target: KRAS G12C (Homo sapiens, UniProt P01116, C118S/C51S/C80L/G12C)
- Sequence (P01116 with tags, fused parts or gaps isoform P01116-2 G12C/C51S/C80L/C118S): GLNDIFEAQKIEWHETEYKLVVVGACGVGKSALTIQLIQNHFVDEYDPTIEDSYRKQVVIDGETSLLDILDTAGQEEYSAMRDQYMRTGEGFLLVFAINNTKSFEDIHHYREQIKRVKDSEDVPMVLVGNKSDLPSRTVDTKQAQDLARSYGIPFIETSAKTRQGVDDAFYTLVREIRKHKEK
- assay-details: SOS-catalyzed nucleotide exchange assay, KRAS G12C (Procedure A)
- condition-set: GNE
pIC50: −log10 of the molar value.

Examples with their reported pIC50 follow.
[[record]]
compound = "Cc1cc2[nH]ncc2c(-c2nccc3c2oc2nc(OC[C@@]45CCCN4C[C@H](F)C5)nc(N4C[C@H]5CC[C@@H](C4)N5)c23)c1C(F)(F)F"
test_target = "KRAS G12C (Homo sapiens, UniProt P01116, C118S/C51S/C80L/G12C)"
measured_result = "< 4.96"

[[record]]
compound = "Cc1cc2[nH]ncc2c(-c2nccc3c2sc2nc(OCC4(C)CS(=O)(=O)C4)nc(N4C[C@H]5CC[C@@H](C4)N5)c23)c1C(F)(F)F"
test_target = "KRAS G12C (Homo sapiens, UniProt P01116, C118S/C51S/C80L/G12C)"
measured_result = "< 4.96"

[[record]]
compound = "Cc1cc2[nH]ncc2c(-c2nccc3c2sc2nc(OC[C@@]45CCCN4C[C@H](F)C5)nc(N4[C@@H]5CC[C@H]4CNC5)c23)c1C(F)(F)F"
test_target = "KRAS G12C (Homo sapiens, UniProt P01116, C118S/C51S/C80L/G12C)"
measured_result = 5.96

[[record]]
compound = "Cc1cc2[nH]ncc2c(-c2nccc3c2sc2nc(OCC4(C#N)CCOCC4)nc(N4C[C@H]5CC[C@@H](C4)N5)c23)c1C(F)(F)F"
test_target = "KRAS G12C (Homo sapiens, UniProt P01116, C118S/C51S/C80L/G12C)"
measured_result = "< 4.96"

[[record]]
compound = "Cc1cc2[nH]ncc2c(-c2nccc3c2sc2nc(OCC4(C#N)CCCO4)nc(N4C[C@H]5CC[C@@H](C4)N5)c23)c1C(F)(F)F (stereo partly drawn)"
test_target = "KRAS G12C (Homo sapiens, UniProt P01116, C118S/C51S/C80L/G12C)"
measured_result = "< 4.96"


Query compound follows.
Challenge: So what does the record say about pIC50 for Cc1cc2[nH]ncc2c(-c2nccc3c2sc2nc(OCC4(C)CNC(=O)C4)nc(N4C[C@H]5CC[C@@H](C4)N5)c23)c1C(F)(F)F (stereo partly drawn) ?
Response given: < 4.96
